Provenance of the data: the supplement of paper PMC4862054

System: CAL-51
assay text: normalised viability (% of control), CellTiter-Blue; higher = more viable cells (about 100 = DMSO control)
condition set: 10 nM; incubation time: 72 h
measured attribute: normalised viability (%)
// note: answer is a bare numeric in %

q: Query: normalised viability; subject: CO[C@@H](C(=O)N1Cc2[nH]nc(NC(=O)c3ccc(N4CCN(C)CC4)cc3)c2C1)c1ccccc1
a: 105

q: How about this compound: O=C(CCBr)N1CCN(C(=O)CCBr)CC1
a: 110

Others:
q: Query: normalised viability; subject: O=S(=O)(c1cccc2cnccc12)N1CCCNCC1
a: 112

q: How about this compound: O=C(NC[C@H](O)CO)c1ccncc1Nc1ccc(I)cc1F
a: 99.2
